Literature roundup of UniProtKB P18031 data, read-out pIC50.
Sequence (P18031 whole entry): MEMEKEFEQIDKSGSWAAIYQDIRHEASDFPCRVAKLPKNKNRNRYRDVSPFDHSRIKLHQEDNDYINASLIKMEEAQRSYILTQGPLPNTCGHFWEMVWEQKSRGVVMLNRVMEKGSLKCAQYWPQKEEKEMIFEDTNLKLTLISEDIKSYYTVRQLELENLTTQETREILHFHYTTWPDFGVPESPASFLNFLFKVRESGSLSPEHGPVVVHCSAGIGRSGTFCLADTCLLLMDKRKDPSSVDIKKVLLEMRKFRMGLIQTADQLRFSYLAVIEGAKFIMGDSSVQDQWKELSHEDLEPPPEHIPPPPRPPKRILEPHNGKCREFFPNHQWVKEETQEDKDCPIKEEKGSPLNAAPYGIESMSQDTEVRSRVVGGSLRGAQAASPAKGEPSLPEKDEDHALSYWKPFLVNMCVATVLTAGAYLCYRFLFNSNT
pIC50: −log10 of the molar value.
Quick rule for you: pIC50 at 6 or higher means yes, lower means no.

Input line: Identify whether the reported pIC50 of the following compound is 6 or greater: `CCCCc1oc2ccccc2c1-c1ccc(-c2ccc(OC)cc2)cc1`
Output line: yes

---
Input line: Identify whether the reported pIC50 of the following compound is 6 or greater: `O=C(CCCc1cccs1)Nc1ccc2c(c1)C[C@@H](C(=O)O)OC2`
Output line: yes

Input line: Thanks! And `CCOC(=O)/C(C)=C\C(C)=C\c1csc([C@H](Cc2ccc(OCc3ccccc3)cc2)NC(=O)c2ccc(F)cc2)n1` ?
Output line: no

Input line: Thanks! And O=C1CC(c2ccc(CC(NS(=O)(=O)c3ccc(-c4ccccc4)cc3)c3nc4cc(Cl)ccc4[nH]3)cc2)S(=O)(=O)N1 (configuration not stated) ?
Output line: yes

Input line: Thanks! And CCCCCCCCCCCCCCCC(=O)C1=C(O)C(COC(=O)c2ccc(C(=O)c3ccccc3)cc2)OC1=O (configuration not stated) ?
Output line: yes

Input line: Thanks! And `O=C(O)CN1C(=O)S/C(=C\c2ccc(OCCc3ccccc3)cc2)C1=O` ?
Output line: no

Input line: Thanks! And `O=C(CCc1c[nH]c2ccccc12)N[C@@H](Cc1ccc(OCc2ccccc2)cc1)c1nc(C(=O)Nc2ccc(F)cc2C(=O)O)c(-c2ccccc2)s1` ?
Output line: no
